test system: UACC-257 melanoma; assay: NCI tumour cell line growth inhibition, 48 h
Hi there, I'd appreciate the recorded TGI for every entry that follows.
One number for each entry, in µM.

# molecule, study.target, TGI, µM
records = [
    ("CN(C)CC(O)c1ccc(Cl)c2ccccc12 (stereo not given)", "UACC-257 melanoma", 38.2),
    ("Cc1nc(C(N)=O)c(N)n1CCN1CCN(C(=O)CCCCCCCCCCNC2N=CNc3nc[nH]c32)CC1 (stereo not given)", "UACC-257 melanoma", 45.7),
    ("Nc1nc2ccc(-c3nc4ccc5[nH]ncc5c4c4c3CCC4)cc2s1", "UACC-257 melanoma", 5.58),
]

Lab note: next molecule to report on.
Return reported TGI for target or system UACC-257 melanoma, item "CO/N=C(\COc1ccc2c(c1)[nH]c1ccccc12)c1ccc(OC)cc1" .
47.1
